protocol_summary: Drug release assay (hydrolysis rate test in pH 7.4 / pH 2.0 buffer, HPLC)
Assay type: physicochemical
applied_conditions: pH 7.4 buffer solution, 37° C., 200 rpm, 0.5 h; residual content relative to 0 h by HPLC
assay_readout: Release rate (%) pH 7.4 (0.5 h)
Reply with just the number (in %).

// Release rate (%) pH 7.4 (0.5 h) lookup, compound = "Cc1cc(C)cc(N2CCC(c3ccc(OC(=O)OCn4cc(F)c(=O)[nH]c4=O)cc3)CC2)c1" , result: 82.7

// Release rate (%) pH 7.4 (0.5 h) lookup, compound = CC[C@@]1(O)C(=O)OCc2c1cc1n(c2=O)Cc2cc3cc(OC(=O)OCC4CCCN4C(c4ccccc4)c4ccccc4)ccc3nc2-1 (stereo partly shown) , result: 100

// Release rate (%) pH 7.4 (0.5 h) lookup, compound = "CCc1c2c(nc3ccc(OC(=O)CN(C4CCCCC4)C4CCCCC4)cc13)-c1cc3c(c(=O)n1C2)COC(=O)[C@]3(O)CC" , result: 35.1

// Release rate (%) pH 7.4 (0.5 h) lookup, compound = "CCCc1ccc(N2CCc3cc(OC(=O)OCn4cc(F)c(=O)[nH]c4=O)ccc3C2)cc1" , result: 94.6

// Release rate (%) pH 7.4 (0.5 h) lookup, compound = "CCCCN(CCCC)c1ccc(N2CCC(CCOC(=O)n3cc(F)c(=O)[nH]c3=O)CC2)cc1" , result: 5.7

// Release rate (%) pH 7.4 (0.5 h) lookup, compound = "CCCCCCCN1CCC(COC(=O)Oc2ccc3nc4c(c(CC)c3c2)Cn2c-4cc3c(c2=O)COC(=O)[C@]3(O)CC)CC1" , result: 8.8

// Release rate (%) pH 7.4 (0.5 h) lookup, compound = "CCCCC1CCN(c2ccc(CCOC(=O)n3cc(F)c(=O)[nH]c3=O)cc2)CC1" , result: 12.0

* * *

protocol_summary: Drug release assay (hydrolysis rate test in pH 7.4 / pH 2.0 buffer, HPLC)
Format: physicochemical
applied_conditions: pH 7.4 buffer solution, 37° C., 200 rpm, 0.5 h; residual content relative to 0 h by HPLC
Field 'label' (enum: met / not met). Set to met when Release rate (%) pH 7.4 (0.5 h) is strictly under 80%; else not met.

Record "COc1cccc2c1C(=O)c1c(O)c3c(c(O)c1C2=O)C[C@@](O)(C(C)=O)C[C@@H]3O[C@H]1C[C@H](NC(=O)Oc2ccc(CN3CCN(C)CC3)cc2)[C@H](OC(C)=O)[C@H](C)O1" : is its Release rate (%) pH 7.4 (0.5 h) strictly below 80%?
met

Record "COc1ccc(OC(=O)OCn2cc(F)c(=O)[nH]c2=O)cc1" : is its Release rate (%) pH 7.4 (0.5 h) strictly below 80%?
met

Record CCc1c2c(nc3ccc(OC(=O)NCC4CCCN4C(c4ccccc4)c4ccccc4)cc13)-c1cc3c(c(=O)n1C2)COC(=O)[C@]3(O)CC (stereo partly drawn) : is its Release rate (%) pH 7.4 (0.5 h) strictly below 80%?
not met

Record "O=C(OCn1cc(F)c(=O)[nH]c1=O)Oc1ccc(C2CCN(CC(c3ccccc3)c3ccccc3)CC2)cc1" : is its Release rate (%) pH 7.4 (0.5 h) strictly below 80%?
not met

Record "CCCc1ccc(N2CCC(Cc3ccc(OC(=O)OCn4cc(F)c(=O)[nH]c4=O)cc3)CC2)cc1" : is its Release rate (%) pH 7.4 (0.5 h) strictly below 80%?
not met

Record "CCCCCCOC(=O)OCn1cc(F)c(=O)[nH]c1=O" : is its Release rate (%) pH 7.4 (0.5 h) strictly below 80%?
met

Record "CC[C@@]1(O)C(=O)OCc2c1cc1n(c2=O)Cc2cc3cc(OC(=O)CC4CCN(CC(c5ccccc5)c5ccccc5)CC4)ccc3nc2-1" : is its Release rate (%) pH 7.4 (0.5 h) strictly below 80%?
met

Record "CCCCCN(CCCCC)c1ccc(OC(=O)OCn2cc(F)c(=O)[nH]c2=O)cc1" : is its Release rate (%) pH 7.4 (0.5 h) strictly below 80%?
met

Reference source for all entries: patent US12729186B2
